target: mu opioid receptor (rat) (UniProt P33535); test: Log(tau/KA) transduction coefficient (log10 (M-1)); higher = more effective agonism; conditions: receptor: rat MOR; βarrestine 1
Sequence (P33535 whole entry): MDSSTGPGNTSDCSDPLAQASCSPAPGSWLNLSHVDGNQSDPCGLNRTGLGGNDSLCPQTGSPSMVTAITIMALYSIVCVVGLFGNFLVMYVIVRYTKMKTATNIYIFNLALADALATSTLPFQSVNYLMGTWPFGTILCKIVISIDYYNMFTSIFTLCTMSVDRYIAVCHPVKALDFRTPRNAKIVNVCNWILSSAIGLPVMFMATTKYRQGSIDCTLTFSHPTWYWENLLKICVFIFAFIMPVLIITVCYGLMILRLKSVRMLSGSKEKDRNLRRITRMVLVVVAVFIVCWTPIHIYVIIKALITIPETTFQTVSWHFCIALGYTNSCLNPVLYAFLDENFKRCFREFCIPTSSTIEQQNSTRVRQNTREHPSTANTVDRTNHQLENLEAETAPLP
Listing of recorded Log(tau/KA) transduction coefficient (log10) by entry.
Keep the answer to the number alone.

CN(C)C(=O)C(CCN1CCC(O)(c2ccc(Cl)cc2)CC1)(c1ccccc1)c1ccccc1 [Loperamide] | 6.08
C[C@@H](NC(=O)[C@@H](N)Cc1ccc(O)cc1)C(=O)NCC(=O)N(C)[C@@H](Cc1ccccc1)C(=O)NCCO | 5.59

Form field Log(tau/KA) transduction coefficient (log10), entry CSCC[C@H](NC(=O)[C@H](Cc1ccccc1)NC(=O)CNC(=O)CNC(=O)[C@@H](N)Cc1ccc(O)cc1)C(=O)O : 5.63

Log(tau/KA) transduction coefficient (log10) reading for COc1ccc2c3c1O[C@H]1C(=O)CC[C@@]4(O)[C@@H](C2)N(C)CC[C@]314 : 5.5
